Source: patent US11992499B2

# Test system: STAM model of non-alcoholic steatohepatitis
# Experiment: STAM model of NASH: HE staining and NAFLD Activity score
# Assay type: in vivo, mice
# Test conditions: summary statement, dose not stated
Outcome measure: NAS compared with the Vehicle group

Task: Requested read-out NAS compared with the Vehicle group, target or system STAM model of non-alcoholic steatohepatitis, entry O=C(O)[C@H]1O[C@@H](N(c2ccc(OC(F)(F)F)cc2)c2ccc3cccc(Cl)c3n2)[C@H](O)[C@@H](O)[C@@H]1O [Compound B]
Result: decreasing trends

Task: // query: O=C(O)[C@H]1O[C@@H](N(c2ccc(OC(F)(F)F)cc2)c2ccc3cccc(Cl)c3n2)[C@H](O)[C@@H](O)[C@@H]1O [drawing 253]
Result: decreasing trend

Task: Next: FC(F)(F)Oc1ccc(Nc2ccc3cccc(Cl)c3n2)cc1 [Compound A]
Result: decreasing trends

Task: Quick one: FC(F)(F)Oc1ccc(Nc2ccc3cccc(Cl)c3n2)cc1 [8-Chloro-N-(4-(trifluoromethoxy)phenyl)quinolin-2-amine]
Result: decreasing trend
